Could you please report measured viability, T/C for the items listed next?
Tested on: 967376-340-R-J2-PDC multicell spheroid viability
Assay: Anticancer human tumor 967376-340-R-J2-PDC patient-derived colon adenocarcinoma cell line growth inhibition [PI3K]
Conditions: second compound 0.01 µM; first compound 0.01 µM; stronger effect = lower value
Kindly provide the numeric value in % only, without the unit symbol.

## Input I have this compound here, CCN1CCN(Cc2ccc(Nc3ncc(F)c(-c4cc(F)c5nc(C)n(C(C)C)c5c4)n3)nc2)CC1 + COc1c(OCCCN2CCOCC2)ccc2c3n(c(=NC(=O)c4cnc(N)nc4)nc12)CCN3 , and I need its recorded viability, T/C.
## Output 77.9

## Input // same read-out, input: CC(C)n1nc(-c2ccc3oc(N)nc3c2)c2c(N)ncnc21 + COc1c(OCCCN2CCOCC2)ccc2c3n(c(=NC(=O)c4cnc(N)nc4)nc12)CCN3
## Output 91.1

## Input // same read-out, input: Cn1ncnc1[C@H]1c2n[nH]c(=O)c3cc(F)cc(c23)N[C@@H]1c1ccc(F)cc1 + COc1c(OCCCN2CCOCC2)ccc2c3n(c(=NC(=O)c4cnc(N)nc4)nc12)CCN3
## Output 73.9

## Input // same read-out, input: CC(C)n1nc(-c2ccc3oc(N)nc3c2)c2c(N)ncnc21 + CC(Nc1ccc2c(c1)OCCn1cc(N3C(=O)OCC3C(F)F)nc1-2)C(N)=O
## Output 68.7

## Input // same read-out, input: CC(=O)c1c(C)c2cnc(Nc3ccc(N4CCNCC4)cn3)nc2n(C2CCCC2)c1=O + COc1c(OCCCN2CCOCC2)ccc2c3n(c(=NC(=O)c4cnc(N)nc4)nc12)CCN3
## Output 101

## Input // same read-out, input: CC(=O)c1c(C)c2cnc(Nc3ccc(N4CCNCC4)cn3)nc2n(C2CCCC2)c1=O + CC(Nc1ccc2c(c1)OCCn1cc(N3C(=O)OCC3C(F)F)nc1-2)C(N)=O
## Output 93

## Input // same read-out, input: CCN1CCN(Cc2ccc(Nc3ncc(F)c(-c4cc(F)c5nc(C)n(C(C)C)c5c4)n3)nc2)CC1 + CC(Nc1ccc2c(c1)OCCn1cc(N3C(=O)OCC3C(F)F)nc1-2)C(N)=O
## Output 74.8

###

System: 967376-340-R-J2-PDC multicell spheroid viability
Test: Anticancer human tumor 967376-340-R-J2-PDC cell line growth inhibition [PI3K];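 further: luminescence used as surrogate of cell viability; spheroids exposed to agents for 7 days before read-out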
Details: second compound 0.00316 µM; first compound 0.316 µM; stronger effect = lower value
Note to self: use t only for viability, T/C readings below 80%; a reading exactly at 80% still gets f.

## Input Quick check: viability, T/C of CNC(=O)c1ccc(N2C(=S)N(c3ccc(C#N)c(C(F)(F)F)c3)C(=O)C2(C)C)cc1F + COc1c(OCCCN2CCOCC2)ccc2c3n(c(=NC(=O)c4cnc(N)nc4)nc12)CCN3 under 80%?
## Output t

## Input // same read-out, input: C#Cc1c(F)ccc2cc(O)cc(-c3ncc4c(N5CC6CCC(C5)N6)nc(OCC56CCCN5CC(F)C6)nc4c3F)c12 (stereo not given) + CC(Nc1ccc2c(c1)OCCn1cc(N3C(=O)OCC3C(F)F)nc1-2)C(N)=O
## Output t

## Input // same read-out, input: C#Cc1c(F)ccc2cc(O)cc(-c3ncc4c(N5CC6CCC(C5)N6)nc(OCC56CCCN5CC(F)C6)nc4c3F)c12 (stereo not given) + COc1c(OCCCN2CCOCC2)ccc2c3n(c(=NC(=O)c4cnc(N)nc4)nc12)CCN3
## Output f

## Input // same read-out, input: Cn1ncc(Cl)c1-c1cc(C(=O)NC(CN)Cc2cccc(F)c2)sc1Cl (stereo not given) + CC(Nc1ccc2c(c1)OCCn1cc(N3C(=O)OCC3C(F)F)nc1-2)C(N)=O
## Output f
